experimental_system: human GLP-1R (SNAP-GLP-1R expressed in HEK293 cells) (human) (UniProt P43220)
Sequence (P43220 24-463): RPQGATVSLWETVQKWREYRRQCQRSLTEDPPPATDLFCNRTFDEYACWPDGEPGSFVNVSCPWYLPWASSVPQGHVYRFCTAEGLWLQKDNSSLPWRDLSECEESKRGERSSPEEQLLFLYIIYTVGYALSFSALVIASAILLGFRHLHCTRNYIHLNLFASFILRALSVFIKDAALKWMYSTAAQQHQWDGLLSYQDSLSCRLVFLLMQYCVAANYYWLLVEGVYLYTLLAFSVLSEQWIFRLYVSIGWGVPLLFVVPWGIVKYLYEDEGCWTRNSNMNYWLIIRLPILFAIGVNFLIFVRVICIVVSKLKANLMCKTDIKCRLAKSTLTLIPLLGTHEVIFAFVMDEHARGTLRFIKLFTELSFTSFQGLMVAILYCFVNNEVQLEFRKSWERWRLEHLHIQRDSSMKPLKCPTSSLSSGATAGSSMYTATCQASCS
test_method_notes: cell-based or functional assay
The binders listed here are annotated with their GLP1R Internalization EC50.

| binder | GLP1R Internalization EC50 |
| --- | --- |
| YXQGTFTSDFSXXLDKKAQXAFIEYLLEAGPSSGAPPPSGS (C-terminal amide; synthetic construct; SITE 2: note = 2-Aminoisobutyric Acid; SITE 12: note = L-ornithine; SITE 13: note = alpha-methyl-leucine; SITE 17: note = Lysine is chemically modified through conjugation of the epsilon-amino group of the Lysine side chain with (2-[2-(2-Amino-ethoxy)-ethoxy]-acetyl)-(gamma-Glu)) [Example 212] | 79.7 nM |
| YXQGTFTSDFSXXLDKKAQXAFIEWLLEGGPSSGAPPPTGS (synthetic construct; SITE 2: note = 2-Aminoisobutyric Acid; SITE 12: note = L-ornithine; SITE 13: note = alpha-methyl-leucine; SITE 17: note = Lysine is chemically modified through conjugation of the epsilon-amino group of the Lysine side chain with (2-[2-(2-Amino-ethoxy)-ethoxy]-acetyl)-(gamma-Glu)) [Example 250] | 97 nM |
| YXQGTFTSDFSXXLDKKAQXAFIEYLLEAGPSSGXPPPSGS (ornithine at residue 12; synthetic construct; SITE 2: note = 2-Aminoisobutyric Acid; SITE 12: note = L-ornithine; SITE 13: note = alpha-methyl-leucine; SITE 17: note = Lysine is chemically modified through conjugation of the epsilon-amino group of the Lysine side chain with (2-[2-(2-Amino-ethoxy)-ethoxy]-acetyl)2-(gamma-Glu)) [Example 254] | 31.9 nM |
| YXQGTFTSDYSQXLDKKAQXAFIEYLLEGGESSGAPPPSGS (synthetic construct; SITE 2: note = 2-Aminoisobutyric Acid; SITE 13: note = alpha-methyl-leucine; SITE 17: note = Lysine is chemically modified through conjugation of the epsilon-amino group of the Lysine side chain with (2-[2-(2-Amino-ethoxy)-ethoxy]-acetyl)-(gamma-Glu)-CO-(CH2) 16-CO2H; SITE 20: n) [Example 362] | 22.8 nM |
| YXQGTFTSDFSXXLDKKAQXAFIEWLLEGGSSSGAPPPSGS (synthetic construct; SITE 2: note = 2-Aminoisobutyric Acid; SITE 12: note = L-ornithine; SITE 13: note = alpha-methyl-leucine; SITE 17: note = Lysine is chemically modified through conjugation of the epsilon-amino group of the Lysine side chain with (2-[2-(2-Amino-ethoxy)-ethoxy]-acetyl)-(gamma-Glu)) [Example 173] | 97.1 nM |
| YXQGTFTSDFSXXLDKKAQXAFIEYLLEAGPSSGHPPPSGH (synthetic construct; SITE 2: note = 2-Aminoisobutyric Acid; SITE 12: note = L-ornithine; SITE 13: note = alpha-methyl-leucine; SITE 17: note = Lysine is chemically modified through conjugation of the epsilon-amino group of the Lysine side chain with (2-[2-(2-Amino-ethoxy)-ethoxy]-acetyl)2-(gamma-Glu)) [Example 255] | 47.1 nM |
